Experiment: logP by reversed-phase HPLC (EEC Directive 79/831 Annex V.A8)
Format: physicochemical
Settings: * LC-MS, acidic range, pH 2.7, 0.1% aqueous formic acid / acetonitrile
Recorded measurements of log P, one per entry

Compound	log P
COc1cc(-c2c(C(F)(F)F)nn(-c3nccnc3OC)c2N)ccc1OCC(F)(F)F [Ex. 125]	3.07*
CCOc1nccnc1-n1nc(C(F)(F)F)c(-c2cc(Cl)cc(C(F)(F)F)c2)c1NCc1ccc(Cl)cc1 [Ex. 37]	5.84*
C=Cc1nn(-c2nccnc2OC)c(N)c1-c1cc(Cl)cc(Cl)c1 [Ex. 8]	3.51*
COc1nccnc1-n1nc(C(F)(F)F)c(-c2cc(Cl)cc(C(F)(F)F)c2)c1N(Cc1ccccc1)Cc1ccccc1 [Ex. 32]	6.67*
C=CCN(CC=C)c1c(-c2cc(Cl)cc(C(F)(F)F)c2)c(C(F)(F)F)nn1-c1nccnc1OC [Ex. 103]	4.08*
Nc1c(-c2cc(Cl)cc(C(F)(F)F)c2)c(C(F)(F)F)nn1-c1nccnc1Cl [Ex. 16]	4.28*
C#CCN(CC#C)c1c(-c2cc(Cl)cc(C(F)(F)F)c2)c(C(F)(F)F)nn1-c1nccnc1OC [Ex. 105]	4.91*
CCOc1nccnc1-n1nc(C(F)(F)F)c(-c2cc(Cl)cc(C(F)(F)F)c2)c1N(Cc1ccccc1)Cc1ccccc1 [Ex. 34]	7*
CSc1nccnc1-n1nc(C(F)(F)F)c(-c2cc(Cl)cc(C(F)(F)F)c2)c1N [Ex. 28]	4.9*
